Target: T1, Recombinant His-tagged human CD36.ECD protein (Sino Biological) (human, UniProt P16671 30-439)
T1 construct: Bought protein; also called hCD36.ECD; hCD36; not shown: His tag
T1 sequence (P16671 30-439 limits assumed): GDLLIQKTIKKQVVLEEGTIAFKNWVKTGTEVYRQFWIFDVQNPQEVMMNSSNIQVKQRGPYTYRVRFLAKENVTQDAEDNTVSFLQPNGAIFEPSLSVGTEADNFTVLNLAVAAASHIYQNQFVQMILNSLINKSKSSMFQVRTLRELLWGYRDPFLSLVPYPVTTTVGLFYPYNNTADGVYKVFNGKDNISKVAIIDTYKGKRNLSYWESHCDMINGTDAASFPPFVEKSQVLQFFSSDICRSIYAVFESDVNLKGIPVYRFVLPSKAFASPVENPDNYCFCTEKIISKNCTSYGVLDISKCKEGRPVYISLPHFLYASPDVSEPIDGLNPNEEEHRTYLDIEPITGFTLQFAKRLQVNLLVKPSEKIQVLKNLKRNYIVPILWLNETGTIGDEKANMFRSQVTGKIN
Test: ELISA, coated human CD36.ECD (FIG. 2C)
Description: ELISA materials and methods: Recombinant His-tagged human CD36.ECD protein or His-tagged mouse CD36.ECD protein (both from Sino Biological) was immobilized on 96 well microtiter plate at a concentration of 1 μg/mL in Coating Solution (SeraCare) overnight at 4° C. The wells were washed with wash solution (0.05% Tween20 in PBS) and blocked with 1% BSA in PBS. […] Thereafter absorbance was measured at 450 nm and 650 nm. EC50 values were calculated through GraphPad Prism7. […]
Below, each of the binders is paired with its reported pEC50 value.
pEC50 here is simply -log10 of the concentration when that concentration is written in mol/L.

binder	pEC50
117_30FA (antibody, V domains shown, full-length IgG, human kappa) VH: EVQLVESGGGLVQPGGSLRLSCAASGFTIFAFGIHWVRQAPGKGLEWVAWIAPYGGYTYYADSVKGRFTISADTSKNTAYLQMNSLRAEDTAVYYCARSFFGYFDYWGQGTLVTVSS VL: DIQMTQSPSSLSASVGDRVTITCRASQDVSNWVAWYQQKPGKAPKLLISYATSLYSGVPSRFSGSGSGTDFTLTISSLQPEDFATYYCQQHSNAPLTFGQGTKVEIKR	9.69

We next turn to a different binder, shown below.
**Q:** Value lookup for pEC50; key = 117_30FT (antibody, V domains shown, full-length IgG, human kappa) VH: EVQLVESGGGLVQPGGSLRLSCAASGFTIFTFGIHWVRQAPGKGLEWVAWIAPYGGYTYYADSVKGRFTISADTSKNTAYLQMNSLRAEDTAVYYCARSFFGYFDYWGQGTLVTVSS VL: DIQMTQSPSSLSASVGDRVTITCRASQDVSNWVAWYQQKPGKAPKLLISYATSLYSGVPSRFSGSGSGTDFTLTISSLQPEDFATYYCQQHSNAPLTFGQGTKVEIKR
**A:** 9.60
